B1: Homeobox protein cut-like 2, residues 895 to 963; numbered along this chain, O14529 (parent)
chain: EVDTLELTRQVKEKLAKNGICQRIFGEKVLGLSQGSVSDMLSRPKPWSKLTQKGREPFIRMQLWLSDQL

variants of: B1; assay: abundance fitness (aPCA) (normalised: wild type 0, dead -1); higher = more abundant; growth selection in yeast, the domain comes from the species named; conditions: Homo sapiens
endpoint: abundance fitness

{"columns": ["variant spec", "measured"],
 "data": [
  ["L50Y", -0.191],
  ["R60H", -0.462],
  ["A16D", -0.055],
  ["L30A", -0.447],
  ["V37I", -0.156],
  ["T8Q", -0.333],
  ["Q34H", 0.027],
  ["S48R", -0.13],
  ["E56H", -0.446],
  ["R60L", -0.215],
  ["V37Y", -0.257],
  ["R43Y", 0.017],
  ["Q34I", 0.005],
  ["V2L", 0.03],
  ["E6A", -0.123],
  ["L30K", -0.178],
  ["L50E", -1.11],
  ["L69A", -0.164],
  ["L30Y", -0.472],
  ["P44R", -0.03],
  ["L15I", -0.084],
  ["W47F", -0.338],
  ["R43V", -0.23],
  ["V29D", -0.476],
  ["A16C", -0.106],
  ["M61A", -0.093],
  ["K17P", -0.411],
  ["S42Y", -0.075],
  ["I59M", -0.046],
  ["W64V", -1.15],
  ["E27I", -0.128],
  ["K45D", -0.108],
  ["G35E", 0.135],
  ["S42C", -0.004],
  ["K17M", -0.09],
  ["V37S", -0.232],
  ["D3Y", -0.358],
  ["Q52G", -0.18],
  ["L50C", -0.488],
  ["P57T", 0.017],
  ["Q68L", -0.052],
  ["W47E", -1.08],
  ["S66R", 0.028],
  ["I59P", -0.937],
  ["S38P", -0.209],
  ["E13W", -0.357]
]}
